Attribution: PubChem BioAssay AID1963874

Test system: 253994-281-T-J1-PDC KRAS-mutant spheroids with HUVEC/MSC, viability;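 further: spheroids exposed to agents for seven days before readout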
Method Description: Anticancer human tumor 253994-281-T-J1-PDC patient-derived colorectal carcinoma cell line growth inhibition [KRAS2]; active means viability on the fitted dose curve at most 10% of control; inactive means the rest
Run Parameters: second compound 3.16 µM; first compound 1 µM
Classes used: active, inactive

Compound	Class Label
COc1cc2nccc(Oc3ccc(NC(=O)C4(C(=O)Nc5ccc(F)cc5)CC4)cc3)c2cc1OC + C=CC(=O)N1CCN(c2nc(OCC3CCCN3C)nc3c2CCN(c2cccc4cccc(C)c24)C3)CC1CC#N	inactive
CC(=O)OC12COC1CC(O)C1(C)C(=O)C(O)C3=C(C)C(OC(=O)C(O)C(NC(=O)OC(C)(C)C)c4ccccc4)CC(O)(C(OC(=O)c4ccccc4)C21)C3(C)C (stereo not given) + CNCc1ccccc1-c1csc(C(C)Nc2nc(C)nc3cc(OC)c(OC)cc23)c1	inactive
O=C(c1cc(Cc2n[nH]c(=O)c3ccccc23)ccc1F)N1CCN(C(=O)C2CC2)CC1 + CNCc1ccccc1-c1csc(C(C)Nc2nc(C)nc3cc(OC)c(OC)cc23)c1	inactive
CC1OCC2(CCN(c3cnc(Sc4ccnc(N)c4Cl)c(N)n3)CC2)C1N (stereo not given) + COc1cc2nc(C)nc(NC(C)c3cc(N)cc(C(F)(F)F)c3)c2cc1OC1CCOC1	inactive
CCN1CCN(Cc2ccc(Nc3ncc(F)c(-c4cc(F)c5nc(C)n(C(C)C)c5c4)n3)nc2)CC1 + CNCc1ccccc1-c1csc(C(C)Nc2nc(C)nc3cc(OC)c(OC)cc23)c1	active
